B1: SMTNL2 (parent)
chain: AFTMAENLANCERLIEVEDMMVMG

variants of: B1; assay: protein stability index of a GFP-peptide fusion (GPS, HEK-293T) (PSI 1-6); higher = more stable; settings: c terminus: a fixed tail appended;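 also: lentivirally expressed fusions sorted by FACS into six bins by GFP to DsRed ratio, PSI derived from sequencing read proportions per bin multiplied by bin number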
Tick True if protein stability index is 3 or greater. Tick False if protein stability index is less than 3.

[
  {
    "mutations": "L14A",
    "cat": "True"
  },
  {
    "mutations": "F2K",
    "cat": "True"
  },
  {
    "mutations": "M21G",
    "cat": "False"
  },
  {
    "mutations": "L14R",
    "cat": "True"
  }
]
